- system: EGFR WT (Homo sapiens, UniProt P00533)
- Sequence (P00533 25-1210): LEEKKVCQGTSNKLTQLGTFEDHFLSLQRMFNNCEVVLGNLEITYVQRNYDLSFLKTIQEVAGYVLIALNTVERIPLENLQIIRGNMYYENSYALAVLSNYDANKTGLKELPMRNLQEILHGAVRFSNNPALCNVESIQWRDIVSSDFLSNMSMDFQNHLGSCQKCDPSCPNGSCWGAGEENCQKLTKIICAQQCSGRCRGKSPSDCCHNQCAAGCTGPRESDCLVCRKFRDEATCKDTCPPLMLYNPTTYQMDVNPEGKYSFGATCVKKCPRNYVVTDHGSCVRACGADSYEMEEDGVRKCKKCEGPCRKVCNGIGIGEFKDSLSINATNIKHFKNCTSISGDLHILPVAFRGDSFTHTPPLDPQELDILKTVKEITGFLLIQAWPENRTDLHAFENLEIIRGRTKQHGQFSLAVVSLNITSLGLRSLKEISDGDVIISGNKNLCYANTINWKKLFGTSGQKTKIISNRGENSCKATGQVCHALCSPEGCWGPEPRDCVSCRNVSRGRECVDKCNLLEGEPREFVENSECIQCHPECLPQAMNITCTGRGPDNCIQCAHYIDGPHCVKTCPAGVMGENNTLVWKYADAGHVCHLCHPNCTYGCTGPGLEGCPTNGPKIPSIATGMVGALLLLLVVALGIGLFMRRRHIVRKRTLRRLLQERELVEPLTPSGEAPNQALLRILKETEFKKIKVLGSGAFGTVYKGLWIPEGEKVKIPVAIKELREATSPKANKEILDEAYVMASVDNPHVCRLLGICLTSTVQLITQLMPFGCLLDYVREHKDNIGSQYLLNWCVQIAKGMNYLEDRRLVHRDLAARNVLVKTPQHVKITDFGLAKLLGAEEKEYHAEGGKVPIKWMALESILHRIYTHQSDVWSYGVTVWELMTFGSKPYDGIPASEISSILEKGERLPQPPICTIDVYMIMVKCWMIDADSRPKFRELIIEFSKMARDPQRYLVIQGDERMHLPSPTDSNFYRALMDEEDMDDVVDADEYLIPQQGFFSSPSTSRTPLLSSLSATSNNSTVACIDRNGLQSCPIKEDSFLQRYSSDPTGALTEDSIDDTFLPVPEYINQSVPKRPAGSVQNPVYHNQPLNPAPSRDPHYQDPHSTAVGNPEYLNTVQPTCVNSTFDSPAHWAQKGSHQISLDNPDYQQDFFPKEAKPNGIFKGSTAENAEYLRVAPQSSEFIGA
measured quantity: IC50

Study these solved cases before continuing.
- Cc1ccc(Oc2ccc(Nc3ncnc4sc5c(c34)CCN(C(=O)/C=C/CN3CC4CCC(C4)C3)C5)cc2C)cn1: 1 to 10 µM
- COc1ccc(Oc2ccc(Nc3ncnc4sc5c(c34)CCN(C(=O)/C=C/CN3CC[C@@H](CO)C3)C5)cc2C)cn1: 1 to 10 µM
- Cc1ccc(Oc2ccc(Nc3ncnc4sc5c(c34)CCN(C(=O)/C=C/CN3CCCC(c4nccs4)C3)C5)cc2C)cn1 (stereo not drawn): > 10 µM
- Cc1cc(Nc2ncnc3sc4c(c23)CCN(C(=O)/C=C/CN2CC(C)OC(C)C2C)C4)ccc1Oc1ccc2ncnn2c1 (stereo not drawn): > 10 µM
- Cc1ccc(Oc2ccc(Nc3ncnc4sc5c(c34)CCN(C(=O)/C=C/CN3CC4CC4(CO)C3)C5)cc2C)cn1 (stereo not drawn): > 10 µM

We now examine a further compound.
Determine its reported IC50: Cc1cc(Nc2ncnc3sc4c(c23)CCN(C(=O)/C=C/CN2CC3CC2CO3)C4)ccc1Oc1ccc2ncnn2c1 (stereo not drawn)
> 10 µM

###

- system: EGFR (Homo sapiens)
- experiment summary: EGFR signaling (pEGFR Tyr1068/total EGFR MSD) in A431 cells
- Assay type: cell-based
- Design: endogenous in cells; host or cells: A431, N87
- applied conditions: ratio A431 pEGFR EC50 to HEK YVMA pHER2 EC50
measured quantity: Selectivity A431 EC50/HEKYVMA EC50

- CCN(CC)C/C=C/C(=O)N1CCc2c(sc3ncnc(Nc4ccc(Oc5ccc(OC)nc5)c(C)c4)c23)C1: D (D: ≥ 5 and < 10)
- Cc1ccc(Oc2ccc(Nc3ncnc4sc5c(c34)CCN(C(=O)/C=C/CN[C@@H](C)CO)C5)cc2C)cn1: D (D: ≥ 5 and < 10)
- CN(C/C=C/C(=O)N1CCc2c(sc3ncnc(Nc4ccc(Oc5ccc6ncnn6c5)c(Cl)c4)c23)C1)C(C)(C)C: D (D: ≥ 5 and < 10)
